# RUN DESCRIPTION: folding enthalpy; higher = less favourable; fluorescence melt of hairpins on a sequencing array, two-state fit
# CONDITION DESCRIPTION: sodium 0.088 M
folding enthalpy vs -30 kcal/mol: at or above is true (1), below is false (0).

RESIDUE SEQUENCE: GTGCCCGAAAGGGTCAC ((((((....))).)))
ANSWER LABEL: true (1)

RESIDUE SEQUENCE: GCACGGCGAAAGCGATGC (((..((....))..)))
ANSWER LABEL: true (1)

RESIDUE SEQUENCE: GGCCCTCGAAAGAGGCC (((.(((....))))))
ANSWER LABEL: true (1)

RESIDUE SEQUENCE: GATCACAAATGTGATC ((((((....))))))
ANSWER LABEL: false (0)

RESIDUE SEQUENCE: GATCTAGGAAACTGGATC ((((.((....)).))))
ANSWER LABEL: false (0)

RESIDUE SEQUENCE: GCCAGAGGAAACTCCGGC (((.(((....))).)))
ANSWER LABEL: true (1)

RESIDUE SEQUENCE: GGTGACGGAAACGTCGCC ((.((((....)))).))
ANSWER LABEL: false (0)

RESIDUE SEQUENCE: GGTTTGCGAAAGCATACC (((.(((....))).)))
ANSWER LABEL: false (0)

RESIDUE SEQUENCE: GATCCGAGTACGGATC ((((((....))))))
ANSWER LABEL: false (0)

RESIDUE SEQUENCE: GCCTCTGGAAACAGGGGC (((.(((....))).)))
ANSWER LABEL: false (0)

RESIDUE SEQUENCE: GATTCTCCGAAAGGAATC (((..(((....))))))
ANSWER LABEL: true (1)

RESIDUE SEQUENCE: GTGTTTGGAAACAAACAC (((((((....)))))))
ANSWER LABEL: false (0)

RESIDUE SEQUENCE: GCCCCGCGAAAGCAAGGC (((..((....))..)))
ANSWER LABEL: true (1)

###

# RUN DESCRIPTION: melting temperature; fluorescence melt of hairpins on a sequencing array, two-state fit, raised by 9.35 °C to match UV melts
# CONDITION DESCRIPTION: sodium 0.088 M
Known Tm of a selection of sequences

RESIDUE SEQUENCE: GCGGACGAAAGTCACCGC ((((((....)))..)))
Tm, °C: 51.5
--
RESIDUE SEQUENCE: GCCTCGCGAAAGCGCAGC ((..(((....)))..))
Tm, °C: 39.8
--
RESIDUE SEQUENCE: GCGAAAGGAAACCTTCGC (((((.(....).)))))
Tm, °C: 48.8
--
RESIDUE SEQUENCE: GCACATGGAAACATGCGC ((.((((....)))).))
Tm, °C: 49.9
--
RESIDUE SEQUENCE: GGTTGCGAAAGCACGACC ((((((....)))..)))
Tm, °C: 40.6
--
RESIDUE SEQUENCE: GTCATCGCGAAAGCGGAC (((..(((....))))))
Tm, °C: 39.9
--
RESIDUE SEQUENCE: GTGTACGGAAACGTATGC (..((((....))))..)
Tm, °C: 39.5
--
RESIDUE SEQUENCE: CGTCGCGGAAACGCAACG (((.(((....))).)))
Tm, °C: 50.5
--
RESIDUE SEQUENCE: GTGTTAGGAAACCAACAC (((((.(....).)))))
Tm, °C: 40
--
RESIDUE SEQUENCE: GAACTGGGAAACCGGTTC ((((.((....)).))))
Tm, °C: 50.1
--
RESIDUE SEQUENCE: GTTTCTGGAAACAGAAGC (.(((((....))))).)
Tm, °C: 39.5
--
RESIDUE SEQUENCE: GTCGACGAAAGTCCAGAC ((((((....)))..)))
Tm, °C: 38.9
--
RESIDUE SEQUENCE: GCGATAGCGAAAGCTCGC (((..(((....))))))
Tm, °C: 51.5
--
RESIDUE SEQUENCE: CGCACGGAAACGTTCGCG ((((((....)))..)))
Tm, °C: 41.1

###

# RUN DESCRIPTION: melting temperature; fluorescence melt of hairpins on a sequencing array, two-state fit, raised by 9.35 °C to match UV melts
# CONDITION DESCRIPTION: sodium 0.088 M
PROPERTY MEASURED: Tm (°C)

RESIDUE SEQUENCE: GGCAGCGAAAGCTCTGCC ((((((....)))..)))
PROPERTY MEASURED: Tm
MEASURED VALUE: 52.4

RESIDUE SEQUENCE: GTTCAACGAAAGTTAAAC (((.(((....))).)))
PROPERTY MEASURED: Tm
MEASURED VALUE: 30.7

RESIDUE SEQUENCE: GGGATGGGAAACCGTCCC ((((.((....)).))))
PROPERTY MEASURED: Tm
MEASURED VALUE: 56.5

RESIDUE SEQUENCE: CGCGGACAGCTCCGCG ((((((....))))))
PROPERTY MEASURED: Tm
MEASURED VALUE: 68.2

RESIDUE SEQUENCE: GTCTGCGAAAGCACAGAC ((((((....)))..)))
PROPERTY MEASURED: Tm
MEASURED VALUE: 46.3

RESIDUE SEQUENCE: GCCGCCGAAAGGCGAGGC ((((((....)))..)))
PROPERTY MEASURED: Tm
MEASURED VALUE: 60.6

RESIDUE SEQUENCE: GCGGAAGGAAACTCCCGC ((((.((....)).))))
PROPERTY MEASURED: Tm
MEASURED VALUE: 50

RESIDUE SEQUENCE: GCCTTGGGAAACCAAGGC (((((((....)))))))
PROPERTY MEASURED: Tm
MEASURED VALUE: 68.8

RESIDUE SEQUENCE: GATCTGTACCCAGATC ((((((....))))))
PROPERTY MEASURED: Tm
MEASURED VALUE: 47.5

RESIDUE SEQUENCE: GATCACGAAAGTGAGATC ((((((....)))..)))
PROPERTY MEASURED: Tm
MEASURED VALUE: 48.5

RESIDUE SEQUENCE: GAAGCTGGAAACAGCCTC ((.((((....)))).))
PROPERTY MEASURED: Tm
MEASURED VALUE: 32.6

RESIDUE SEQUENCE: GATCAGCCTCTGATC ((((((...))))))
PROPERTY MEASURED: Tm
MEASURED VALUE: 47.9

RESIDUE SEQUENCE: GACCACGAAAGTGGCGTC ((((((....)))..)))
PROPERTY MEASURED: Tm
MEASURED VALUE: 45.6

RESIDUE SEQUENCE: GTCCGGGGAAACCTGGAC ((((.((....)).))))
PROPERTY MEASURED: Tm
MEASURED VALUE: 55.5

RESIDUE SEQUENCE: GGGCAGGGAAACCCACCC (((..((....))..)))
PROPERTY MEASURED: Tm
MEASURED VALUE: 34.8

RESIDUE SEQUENCE: GCGCGCGGAAACGCACGC (((.(((....))).)))
PROPERTY MEASURED: Tm
MEASURED VALUE: 67.8

RESIDUE SEQUENCE: GAAGATACGAAAGTATTC (((..(((....))))))
PROPERTY MEASURED: Tm
MEASURED VALUE: 27.7

RESIDUE SEQUENCE: GTACCGGGAAACCGATAC (((.(((....))).)))
PROPERTY MEASURED: Tm
MEASURED VALUE: 40

###

Reported values of Tm for individual entries
# RUN DESCRIPTION: melting temperature; fluorescence melt of hairpins on a sequencing array, two-state fit, raised by 9.35 °C to match UV melts
# CONDITION DESCRIPTION: sodium 0.088 M
PROPERTY MEASURED: Tm (°C)

RESIDUE SEQUENCE: GTCTTCGAAAGAAGTGAC ((((((....)))..)))
PROPERTY MEASURED: Tm
MEASURED VALUE: 34
--
RESIDUE SEQUENCE: GATCACACTCGTGATC ((((((....))))))
PROPERTY MEASURED: Tm
MEASURED VALUE: 57.4
--
RESIDUE SEQUENCE: GATCATCATGATGATC ((((((....))))))
PROPERTY MEASURED: Tm
MEASURED VALUE: 53.8
--
RESIDUE SEQUENCE: GAGCCAGCGAAAGCTCTC (((..(((....))))))
PROPERTY MEASURED: Tm
MEASURED VALUE: 34.8
--
RESIDUE SEQUENCE: GGATTCGAAAGAATATCC ((((((....)))..)))
PROPERTY MEASURED: Tm
MEASURED VALUE: 30.3
--
RESIDUE SEQUENCE: GGGAGCACGAAAGTGCCC (((..(((....))))))
PROPERTY MEASURED: Tm
MEASURED VALUE: 59.1
--
RESIDUE SEQUENCE: GCGCCGCGAAAGCATCGC (((..((....))..)))
PROPERTY MEASURED: Tm
MEASURED VALUE: 51.2
--
RESIDUE SEQUENCE: GAGCCTGGAAACGGGTTC ((.((.(....).)).))
PROPERTY MEASURED: Tm
MEASURED VALUE: 36.4
--
RESIDUE SEQUENCE: GGATTACCGAAAGGTTCC (((..(((....))))))
PROPERTY MEASURED: Tm
MEASURED VALUE: 30.8
--
RESIDUE SEQUENCE: GATCCAATATGGATC ((((((...))))))
PROPERTY MEASURED: Tm
MEASURED VALUE: 51.3
--
RESIDUE SEQUENCE: GGCTGGGGAAACTCAGCC (((((.(....).)))))
PROPERTY MEASURED: Tm
MEASURED VALUE: 57
--
RESIDUE SEQUENCE: GGGTTCTCGAAAGAGCCC (((..(((....))))))
PROPERTY MEASURED: Tm
MEASURED VALUE: 48.1
--
RESIDUE SEQUENCE: GATCCCGGAAACGGAATC (((.(((....))).)))
PROPERTY MEASURED: Tm
MEASURED VALUE: 40.1
